Reference source: patent US20130129753A1

# assayedTarget: Notch receptor (human)
# method: cell-based or functional assay
Listed next: entries and their corresponding IC50 (ng Ab/mL), MTS viability of HCC2429 cells (repeat 2).
Output spec: scalar in ng Ab/mL, unitless text.

Past entries and their recorded results:
[[record]]
binder = "Notch-28-v1010-hG1-(C)_mcValCitPABC-#112 (antibody, human IgG1, kappa, V domains shown, drug-linker mcValCitPABC-#112 on cysteine (C), positions not given; drug-linker mcValCitPABC-#112 on cysteine (C), positions not given; DAR 3.9 per antibody) VH: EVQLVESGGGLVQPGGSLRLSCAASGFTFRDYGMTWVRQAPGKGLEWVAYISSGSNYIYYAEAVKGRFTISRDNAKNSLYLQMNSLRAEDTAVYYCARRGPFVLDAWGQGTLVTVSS VL: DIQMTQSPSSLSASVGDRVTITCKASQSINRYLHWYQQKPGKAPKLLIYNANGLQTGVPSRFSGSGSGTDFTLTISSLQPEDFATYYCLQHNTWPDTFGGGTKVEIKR"
valueobserved = 2050

[[record]]
binder = "Notch-75-v1913-hG1-(C)_mcValCitPABC-#54 (antibody, human IgG1, kappa, V domains shown, drug-linker mcValCitPABC-#54 on cysteine (C), positions not given; drug-linker mcValCitPABC-#54 on cysteine (C), positions not given; DAR 3.8 per antibody) VH: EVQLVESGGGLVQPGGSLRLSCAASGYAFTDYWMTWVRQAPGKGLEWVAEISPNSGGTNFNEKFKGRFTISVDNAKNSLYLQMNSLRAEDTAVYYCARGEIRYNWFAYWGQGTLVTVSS VL: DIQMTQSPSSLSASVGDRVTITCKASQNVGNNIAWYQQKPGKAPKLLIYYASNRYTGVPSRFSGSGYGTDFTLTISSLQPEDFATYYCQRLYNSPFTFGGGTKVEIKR"
valueobserved = 3300

[[record]]
binder = "Notch-28-v1010-hG1-(C)_mcValCitPABC-#54 (antibody, human IgG1, kappa, V domains shown, drug-linker mcValCitPABC-#54 on cysteine (C), positions not given; drug-linker mcValCitPABC-#54 on cysteine (C), positions not given; DAR 3.9 per antibody) VH: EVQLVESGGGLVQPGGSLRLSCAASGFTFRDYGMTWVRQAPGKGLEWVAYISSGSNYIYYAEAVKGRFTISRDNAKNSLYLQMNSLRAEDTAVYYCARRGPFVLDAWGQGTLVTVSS VL: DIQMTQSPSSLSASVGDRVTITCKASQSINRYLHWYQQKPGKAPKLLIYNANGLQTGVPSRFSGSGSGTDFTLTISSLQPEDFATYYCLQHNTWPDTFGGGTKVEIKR"
valueobserved = 2940


Consider the additional binder presented here.
What IC50 (ng Ab/mL), MTS viability of HCC2429 cells (repeat 2) value was documented for this binder, Notch-75-v1913-hG1-(C)_mcValCitPABC-#112 (antibody, human IgG1, kappa, V domains shown, drug-linker mcValCitPABC-#112 on cysteine (C), positions not given; drug-linker mcValCitPABC-#112 on cysteine (C), positions not given; DAR 4.2 per antibody) VH: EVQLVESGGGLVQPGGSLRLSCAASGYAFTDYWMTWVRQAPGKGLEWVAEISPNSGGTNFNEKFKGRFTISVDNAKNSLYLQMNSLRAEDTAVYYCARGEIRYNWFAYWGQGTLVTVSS VL: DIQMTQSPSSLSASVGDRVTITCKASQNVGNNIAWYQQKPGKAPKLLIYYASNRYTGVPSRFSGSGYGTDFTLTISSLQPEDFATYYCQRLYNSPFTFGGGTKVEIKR ?
630
